system: A431; experiment: filipin (cholesterol) integrated intensity within LBPA endosomes, Z-score; higher = more cholesterol in LBPA endosomes; details: compound concentration in added solution (µM; 5 µl added to 20 µl cells): 10; 18 h
Counter-ions that a name gives are not always drawn.
REPORTED_METRIC: filipin (z-score)
Answers are plain numbers.

In the examples that follow, each entry is paired with its recorded filipin (z-score).
>>> df
                                   molecule  experimental_target    reported_metric  number
0  N=C(N)NC(=O)c1nc(Cl)c(N)nc1N [Amiloride hydrochloride dihydrate]                 A431  filipin (z-score)  -0.486
1  Cc1cccc(Nc2ccccc2C(=O)O)c1C [Mefenamic acid]                 A431  filipin (z-score)  -0.497
2  OC(CCN1CCCCC1)(c1ccccc1)C1CCCCC1 (stereo not given) [Trihexyphenidyl-D,L Hydrochloride]                 A431  filipin (z-score)   0.357
3  Nc1nnc(-c2cccc(Cl)c2Cl)c(N)n1 [Lamotrigine]                 A431  filipin (z-score)  -0.396

Next molecule, please.
Task: Identify the reported filipin (z-score) for the following entry. CCCC(CCC)C(=O)O [Valproic acid]
Output: -0.401

* * *

system: A431; assay: filipin (cholesterol) integrated intensity within LBPA endosomes, Z-score; higher = more cholesterol in LBPA endosomes; conditions: compound concentration in added solution (µM; 5 µl added to 20 µl cells): 10; 18 h
Where a name gives a salt, the structure may show the parent alone.
REPORTED_METRIC: filipin (z-score)
Answers are plain numbers.

Please review the entries below; each comes with its answer.
MOLECULE	filipin (z-score)
Cc1ncc([N+](=O)[O-])n1CC(C)O (centres undefined)	-0.374
C[C@]12CC[C@@H]3c4ccc(O)cc4CC[C@H]3[C@@H]1CCC2=O	-0.236
CN(C)[C@@H]1C(O)=C(C(N)=O)C(=O)[C@@]2(O)C(O)=C3C(=O)c4c(O)ccc(Cl)c4[C@@H](O)[C@H]3C[C@@H]12 [Demeclocycline hydrochloride]	-0.465

Here's the next entry for you.
Task: State, in one line, measured filipin (z-score) of COc1cc(Cc2cnc(N)nc2N)cc(OC)c1OC
Output: -0.515

* * *

tested on: A431; test: LBPA endosome anti-LBPA integrated intensity (sum per cell), Z-score; higher = more LBPA staining; settings: compound concentration in added solution (µM; 5 µl added to 20 µl cells): 10; 18 h
Structures can show the parent of a compound that is named as a salt.
REPORTED_METRIC: LBPA endosome anti-LBPA integrated intensity (z-score)
One number for each entry.

Solved entries (count: 2):
                                   compound  experimental_target  number
0  O=C(O)c1cc(=O)c2c(OCC(O)COc3cccc4oc(C(=O)O)cc(=O)c34)cccc2o1 [Cromolyn disodium salt]                 A431  -0.474
1  C[C@]12CC[C@@H]3c4ccc(O)cc4CC[C@H]3[C@@H]1C[C@@H](O)[C@@H]2O                 A431  -0.219

Parameters: items (list). Returns: LBPA endosome anti-LBPA integrated intensity (z-score) for each item.
1. CCN(CC)C(=O)/C(C#N)=C/c1cc(O)c(O)c([N+](=O)[O-])c1
2. CC(=O)O[C@]1(C(C)=O)CC[C@H]2[C@@H]3C=C(Cl)C4=CC(=O)CC[C@]4(C)[C@H]3CC[C@@]21C [Chlormadinone acetate]

Output:
1: -0.554; 2: 0.021

Okay, here is my list. What is LBPA endosome anti-LBPA integrated intensity (z-score) for each of these?
1. COc1ccc(Cl)cc1C(=O)NCCc1ccc(S(=O)(=O)NC(=O)NC2CCCCC2)cc1 [Glibenclamide]
2. CC(COc1ccccc1)NC(C)C(O)c1ccc(O)cc1 (centres undefined) [Isoxsuprine hydrochloride]
3. CC1CC(OC(=O)C(O)c2ccccc2)CC(C)(C)N1C (centres undefined) [Eucatropine hydrochloride]
4. CCCN(CCC)CCc1cccc2c1CC(=O)N2 [Ropinirole HCl]
5. CC(=O)OCC(CCn1cnc2cnc(N)nc21)COC(C)=O

Output:
1. -0.686
2. -0.187
3. -0.612
4. -0.0677
5. -0.437

Consider the following items and state reported LBPA endosome anti-LBPA integrated intensity (z-score) for each.
1. CN(C)CCOC(c1ccccc1)c1ccccc1 [Diphenhydramine hydrochloride]
2. CN(C)CC/C=C1/c2ccccc2COc2ccc(CC(=O)O)cc21 [Olopatadine hydrochloride]
3. O=C(CCNNC(=O)c1ccncc1)NCc1ccccc1 [Nialamide]
4. N=C(N)c1ccc(OCCCCCOc2ccc(C(=N)N)cc2)cc1 [Pentamidine isethionate]
5. CC(C)(C)NCC(O)c1cc(O)cc(O)c1 (centres undefined) [Terbutaline hemisulfate]
6. COc1cc(NS(=O)(=O)c2ccc(N)cc2)nc(OC)n1
7. CC(C)C(=O)Nc1ccc([N+](=O)[O-])c(C(F)(F)F)c1 [Flutamide]
8. Cn1c(=O)c2c(ncn2CC(=O)O)n(C)c1=O

Output:
1: -0.431; 2: -0.245; 3: -0.371; 4: -0.319; 5: -0.651; 6: -0.522; 7: -0.32; 8: -0.332

Please give LBPA endosome anti-LBPA integrated intensity (z-score) for each item listed below.
1. CCN(CC)CCOC(=O)C(c1ccccc1)c1ccccc1 [Adiphenine hydrochloride]
2. CCN(CC)CCOC(=O)C1(C2CCCCC2)CCCCC1 [Dicyclomine hydrochloride]
3. CO[C@@]1(NC(=O)Cc2cccs2)C(=O)N2C(C(=O)O)=C(COC(N)=O)CS[C@@H]21 [Cefoxitin sodium salt]
4. CCc1cccc2c3c([nH]c12)C(CC)(CC(=O)O)OCC3 (centres undefined)
5. COC(=O)CCc1ccc(OCC(O)CNC(C)C)cc1 (centres undefined) [Esmolol hydrochloride]

Output:
-0.67
-0.0951
-0.479
-0.65
-0.258

Field: LBPA endosome anti-LBPA integrated intensity (z-score). Fill in for each record below.
1. CC(C)(C)C(=O)OCOC(=O)[C@@H]1N2C(=O)[C@@H](/N=C/N3CCCCCC3)[C@H]2SC1(C)C [Pivmecillinam hydrochloride]
2. OC(CCN1CCCCC1)(c1ccccc1)C1CCCCC1 (centres undefined) [Trihexyphenidyl-D,L Hydrochloride]
3. CC(=O)N(CC(O)CO)c1c(I)c(C(=O)NCC(O)CO)c(I)c(C(=O)NCC(O)CO)c1I (centres undefined) [Iohexol]
4. Clc1ccc(CSC(Cn2ccnc2)c2ccc(Cl)cc2Cl)cc1 (centres undefined) [Sulconazole nitrate]
5. CN1CCN(CC(=O)N2c3ccccc3C(=O)Nc3cccnc32)CC1 [Pirenzepine dihydrochloride]
6. CC(C)(C)NC(=O)[C@H]1CC[C@H]2[C@@H]3CC[C@H]4NC(=O)C=C[C@]4(C)[C@H]3CC[C@]12C [Finasteride]
7. CCOc1ccc2c(c1)C(C)=CC(C)(C)N2

Output:
[-0.535, 1.27, -0.463, 0.249, -0.619, -0.353, -0.421]

Below are some compounds; for each one, tell me its LBPA endosome anti-LBPA integrated intensity (z-score).
1. CN(C)c1ccc(O)c2c1C[C@H]1C[C@H]3[C@H](N(C)C)C(O)=C(C(N)=O)C(=O)[C@@]3(O)C(O)=C1C2=O [Minocycline hydrochloride]
2. CC(C)Cn1cnc2c(N)nc3ccccc3c21
3. NCCc1ccc(O)c(O)c1 [Dopamine hydrochloride]

Output:
1: -0.618; 2: 0.0371; 3: -0.272

Provide the reported LBPA endosome anti-LBPA integrated intensity (z-score) of each entry below, same order.
1. NC(=O)OCC(O)COc1ccc(Cl)cc1 (centres undefined) [Chlorphensin carbamate]
2. C=CC1=C(C(=O)O)N2C(=O)[C@@H](NC(=O)/C(=N\O)c3csc(N)n3)[C@H]2SC1

Output:
-0.6
-0.422

* * *

system: HeLa MZ; assay: whole-cell filipin (free cholesterol) integrated intensity, Z-score; higher = more cholesterol staining; conditions: compound concentration in added solution (µM; 5 µl added to 20 µl cells): 10; 18 h
Structures can show the parent of a compound that is named as a salt.
// not fulfilled strictly below 0.7 in whole-cell filipin (z-score); fulfilled otherwise

>>> df
                                   compound     class_name
0  CCN1CCCC(OC(=O)C(c2ccccc2)c2ccccc2)C1 (stereo not drawn) [Piperidolate hydrochloride]      fulfilled
1  O=C(O)CCNC(=O)c1ccc(/N=N/c2ccc(O)c(C(=O)O)c2)cc1 [Balsalazide Sodium]  not fulfilled
2  CCN(CC)CCOC(=O)C(c1ccccc1)C1CCCCC1 (stereo not drawn) [Drofenine hydrochloride]      fulfilled
3  CS(=O)(=O)c1ccc(C2=C(c3ccccc3)C(=O)OC2)cc1  not fulfilled
4  Cc1ccccc1C(OCCN(C)C)c1ccccc1 (stereo not drawn) [Orphenadrine hydrochloride]      fulfilled
5  CCC(=O)[C@@]1(C)[C@H](C)C[C@H]2[C@@H]3CCC4=CC(=O)C=C[C@]4(C)[C@H]3[C@@H](O)C[C@@]21C [Rimexolone]  not fulfilled

// next entry
Task: Could you please find out whether CC#C[C@]1(O)CC[C@H]2[C@@H]3CCC4=CC(=O)CCC4=C3[C@@H](c3ccc(N(C)C)cc3)C[C@@]21C has whole-cell filipin (z-score) that meets 0.7 or exceeds it?
Output: not fulfilled
